Each entry below carries its measured pIC50, system: cAMP and cAMP-inhibited cGMP 3',5'-cyclic phosphodiesterase 10A (Homo sapiens).
// scale note: pIC50 = -log10(conc_M); give the bare number

[in] Please provide the recorded pIC50 for O=C(c1ccccc1)N1CCN(C(=O)c2nc(C3CC3)cnc2Nc2cncnc2)CC1 [Roche-Dataset for PDE10A, Compound 1104] , tested on cAMP and cAMP-inhibited cGMP 3',5'-cyclic phosphodiesterase 10A (Homo sapiens).
[out] 5.00

[in] Param readout= pIC50; system= cAMP and cAMP-inhibited cGMP 3',5'-cyclic phosphodiesterase 10A (Homo sapiens); entry= Cn1cc(-c2ccccc2)nc1CCc1cnc2ccccc2n1 ; returns value.
[out] 7.68

[in] // fetch cAMP and cAMP-inhibited cGMP 3',5'-cyclic phosphodiesterase 10A (Homo sapiens) pIC50 for Cc1cc(Cl)cc2c(=O)[nH]c(CCc3nc(-c4ccccc4)cn3C)nc12 [Roche-Dataset for PDE10A, Compound 70]
[out] 7.09

[in] Could you share what pIC50 was measured for Cc1nc(-c2ccccc2Cl)n2c3cc(Cl)ccc3c(=O)n(C)c12 [Roche-Dataset for PDE10A, Compound 987] , tested on cAMP and cAMP-inhibited cGMP 3',5'-cyclic phosphodiesterase 10A (Homo sapiens)?
[out] 8.18

[in] Hello, I am looking for reported pIC50 with cAMP and cAMP-inhibited cGMP 3',5'-cyclic phosphodiesterase 10A (Homo sapiens) for CC(C)(C)OCCCNC(=O)c1nc(C2CC2)cnc1Nc1cncnc1 [Roche-Dataset for PDE10A, Compound 968] . Could you help?
[out] 6.53

[in] Observed pIC50 on cAMP and cAMP-inhibited cGMP 3',5'-cyclic phosphodiesterase 10A (Homo sapiens) for O=C(NCc1cccc(F)c1)c1nc(C2CC2)cnc1Nc1cncnc1 [Roche-Dataset for PDE10A, Compound 837] , please.
[out] 6.30

[in] Give the reported pIC50 for O=C(NCc1cnn(-c2ccccc2)n1)c1nc(C2CC2)cnc1Nc1cncnc1 [Roche-Dataset for PDE10A, Compound 727] (system: cAMP and cAMP-inhibited cGMP 3',5'-cyclic phosphodiesterase 10A (Homo sapiens)).
[out] 7.23

[in] Write down the reported pIC50 of CCOC(=O)c1cnn(C)c1C(=O)Nc1ccn2nc(Br)nc2c1 [Roche-Dataset for PDE10A, Compound 936] , test system: cAMP and cAMP-inhibited cGMP 3',5'-cyclic phosphodiesterase 10A (Homo sapiens).
[out] 5.46

[in] Tell me reported pIC50 for O=C(Nc1cnc(Cl)cc1Cl)c1nc(C2CC2)ccc1Nc1cncnc1 [Roche-Dataset for PDE10A, Compound 942] , tested with cAMP and cAMP-inhibited cGMP 3',5'-cyclic phosphodiesterase 10A (Homo sapiens).
[out] 8.00

[in] So what pIC50 did C/C(=C\c1nc2c(C)ncc(C)n2n1)c1nc(Br)nn1C [Roche-Dataset for PDE10A, Compound 1125] get with cAMP and cAMP-inhibited cGMP 3',5'-cyclic phosphodiesterase 10A (Homo sapiens)?
[out] 5.32

[in] Form field - read-out: pIC50; system: cAMP and cAMP-inhibited cGMP 3',5'-cyclic phosphodiesterase 10A (Homo sapiens); submitted item: Cc1ncc(C)n2nc(/C=C/c3nc(Br)cn3-c3ccccc3)nc12 [Roche-Dataset for PDE10A, Compound 648]
[out] 6.69

[in] Under cAMP and cAMP-inhibited cGMP 3',5'-cyclic phosphodiesterase 10A (Homo sapiens): pIC50 value of CN(C)CCn1ccc(NC(=O)c2nc(C3CC3)cnc2Nc2cncnc2)n1 [Roche-Dataset for PDE10A, Compound 828] ?
[out] 7.54

[in] Field: pIC50 (cAMP and cAMP-inhibited cGMP 3',5'-cyclic phosphodiesterase 10A (Homo sapiens)). Entry: Cn1nc(-c2ccccn2)cc1NC(=O)c1cc(C(F)(F)F)ncc1Br [Roche-Dataset for PDE10A, Compound 547]
[out] 5.00

[in] Report pIC50 for Cn1nccc1NC(=O)c1nc(C2CC2)ccc1Nc1cncnc1 [Roche-Dataset for PDE10A, Compound 1033] tested on cAMP and cAMP-inhibited cGMP 3',5'-cyclic phosphodiesterase 10A (Homo sapiens).
[out] 6.98
